- TARGET_UNDER_TEST: PAF binding sites (Homo sapiens)
- Sequence (P25105 whole entry): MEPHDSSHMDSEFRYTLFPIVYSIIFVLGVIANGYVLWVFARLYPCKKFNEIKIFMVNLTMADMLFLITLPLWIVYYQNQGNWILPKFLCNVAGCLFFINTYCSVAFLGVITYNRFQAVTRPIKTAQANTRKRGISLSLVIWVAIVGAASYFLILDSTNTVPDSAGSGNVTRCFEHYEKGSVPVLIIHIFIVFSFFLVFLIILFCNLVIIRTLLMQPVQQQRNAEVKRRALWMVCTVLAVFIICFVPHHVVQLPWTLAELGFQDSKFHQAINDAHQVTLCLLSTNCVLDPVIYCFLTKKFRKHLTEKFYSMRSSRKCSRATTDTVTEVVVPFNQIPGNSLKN
pIC50: −log10 of the molar value.
REPORTED_ENDPOINT: pIC50

The molecule CCC(C)C=C(C)C1C(C)=CC2(C)CC(C)CCC2C1C(=O)C1=CC(O)(Cc2ccc(O)cc2)NC1=O (stereo not shown) , tested on PAF binding sites (Homo sapiens), showed pIC50 of ~5.52

###

- TARGET_UNDER_TEST: P59^fyn tyrosine kinase (Homo sapiens, UniProt P06241)
- Sequence (P06241 whole entry): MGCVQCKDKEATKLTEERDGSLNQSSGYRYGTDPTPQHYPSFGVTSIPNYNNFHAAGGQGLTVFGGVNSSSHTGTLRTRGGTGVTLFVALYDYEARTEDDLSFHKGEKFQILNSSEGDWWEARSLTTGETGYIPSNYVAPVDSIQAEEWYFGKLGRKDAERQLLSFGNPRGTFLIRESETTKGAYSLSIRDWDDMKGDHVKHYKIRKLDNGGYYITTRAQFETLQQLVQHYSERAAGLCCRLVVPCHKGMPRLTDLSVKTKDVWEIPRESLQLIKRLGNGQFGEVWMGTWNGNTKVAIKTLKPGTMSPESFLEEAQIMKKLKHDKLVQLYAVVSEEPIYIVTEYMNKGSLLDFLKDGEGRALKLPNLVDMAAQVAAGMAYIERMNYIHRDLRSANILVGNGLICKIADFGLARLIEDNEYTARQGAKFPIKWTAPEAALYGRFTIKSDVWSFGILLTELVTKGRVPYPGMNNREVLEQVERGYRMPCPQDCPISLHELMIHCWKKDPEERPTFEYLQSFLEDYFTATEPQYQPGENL
REPORTED_ENDPOINT: IC50

The molecule CCC(C)C=C(C)C1C(C)=CC2(C)CC(C)CCC2C1C(=O)C1=CC(O)(Cc2ccc(O)cc2)NC1=O (stereo not shown) showed IC50 equal to ~3 µM

###

- TARGET_UNDER_TEST: UniProtKB P04150
- Sequence (P04150 1-777): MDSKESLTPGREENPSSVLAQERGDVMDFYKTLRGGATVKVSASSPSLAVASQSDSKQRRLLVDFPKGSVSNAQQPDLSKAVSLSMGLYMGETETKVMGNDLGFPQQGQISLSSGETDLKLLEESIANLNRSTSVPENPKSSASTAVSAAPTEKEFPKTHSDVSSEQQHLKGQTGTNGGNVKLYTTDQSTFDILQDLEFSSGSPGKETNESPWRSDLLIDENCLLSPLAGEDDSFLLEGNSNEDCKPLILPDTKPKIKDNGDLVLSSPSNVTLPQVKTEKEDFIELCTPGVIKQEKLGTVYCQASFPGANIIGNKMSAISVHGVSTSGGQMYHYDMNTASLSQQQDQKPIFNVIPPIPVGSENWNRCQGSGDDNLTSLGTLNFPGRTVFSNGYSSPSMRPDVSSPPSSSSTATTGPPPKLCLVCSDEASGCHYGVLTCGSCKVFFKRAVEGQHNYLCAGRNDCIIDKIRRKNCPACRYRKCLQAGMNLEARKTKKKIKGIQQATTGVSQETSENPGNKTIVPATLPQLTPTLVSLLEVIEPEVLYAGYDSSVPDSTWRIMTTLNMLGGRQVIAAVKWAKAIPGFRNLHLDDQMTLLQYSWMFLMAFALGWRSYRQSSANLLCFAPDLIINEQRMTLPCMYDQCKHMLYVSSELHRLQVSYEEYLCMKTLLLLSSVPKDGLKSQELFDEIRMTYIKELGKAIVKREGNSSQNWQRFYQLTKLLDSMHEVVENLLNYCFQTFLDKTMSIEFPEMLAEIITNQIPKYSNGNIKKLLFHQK
pIC50: −log10 of the molar value.
REPORTED_ENDPOINT: pIC50

The compound CCC(C)C=C(C)C1C(C)=CC2(C)CC(C)CCC2C1C(=O)C1=CC(O)(Cc2ccc(O)cc2)NC1=O (stereo not shown) , tested on UniProtKB P04150, showed pIC50 of ~5.52

###

- TARGET_UNDER_TEST: Phospholipase A2
- ASSAY: inhibition of Phospholipase A2
- CONDITION_NOTES: 0.5% DMSO
pIC50: −log10 of the molar value.
REPORTED_ENDPOINT: pIC50

The molecule CCC(C)C=C(C)C1C(C)=CC2(C)CC(C)CCC2C1C(=O)C1=CC(O)(Cc2ccc(O)cc2)NC1=O (stereo not shown) showed pIC50 equal to ~4.00
